Reference for the values: the supplement of paper PMC8728848

# MEASURED TARGET: Fuc(a1-2)[GalNAc(a1-3)]Gal(b1-4)[Fuc(a1-3)]GlcNAc(b1-3)GalNAc
# EXPERIMENT: glycan array binding signal (z-score within array); higher = stronger binding
# ASSAY SETUP: glycan notation: IUPAC condensed, linker removed
The full list was thinned out, with the strongest signals kept by preference.
Please mark criterion met if the recorded glycan array binding signal (z-score) is equal to or greater than -0.2, and criterion not met if it falls below.

{"BINDER": "SJCP1084 (Schistosoma japonicum) (protein) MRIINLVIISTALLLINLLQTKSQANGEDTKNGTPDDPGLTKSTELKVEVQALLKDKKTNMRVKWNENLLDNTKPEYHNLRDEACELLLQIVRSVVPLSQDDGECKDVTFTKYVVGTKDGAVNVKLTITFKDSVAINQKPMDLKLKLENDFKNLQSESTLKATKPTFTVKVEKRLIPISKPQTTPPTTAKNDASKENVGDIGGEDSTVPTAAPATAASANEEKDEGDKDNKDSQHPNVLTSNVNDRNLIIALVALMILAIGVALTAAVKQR", "ASSIGNED CATEGORY": "criterion not met"}
{"BINDER": "RS2L (Ralstonia solanacearum), B5RXL5_RALSO (protein) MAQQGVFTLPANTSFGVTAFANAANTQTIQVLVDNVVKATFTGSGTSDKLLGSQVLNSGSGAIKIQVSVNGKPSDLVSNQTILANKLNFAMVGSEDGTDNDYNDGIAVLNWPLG", "ASSIGNED CATEGORY": "criterion not met"}
{"BINDER": "AidA (Burkholderia cenocepacia) (protein) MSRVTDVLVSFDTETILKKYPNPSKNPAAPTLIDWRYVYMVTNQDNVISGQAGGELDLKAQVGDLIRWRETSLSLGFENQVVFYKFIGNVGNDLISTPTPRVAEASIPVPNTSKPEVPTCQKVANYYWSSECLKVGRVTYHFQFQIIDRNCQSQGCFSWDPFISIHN", "ASSIGNED CATEGORY": "criterion met"}
{"BINDER": "GNAT (Pseudomonas aeruginosa), Q9HV14 (protein) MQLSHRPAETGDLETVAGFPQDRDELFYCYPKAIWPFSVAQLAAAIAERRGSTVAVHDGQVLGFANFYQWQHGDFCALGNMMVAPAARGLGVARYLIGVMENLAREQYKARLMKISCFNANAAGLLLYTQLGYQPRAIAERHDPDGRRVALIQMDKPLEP", "ASSIGNED CATEGORY": "criterion met"}
{"BINDER": "Pbx2CASH domain (Cryptococcus neoformans) (protein) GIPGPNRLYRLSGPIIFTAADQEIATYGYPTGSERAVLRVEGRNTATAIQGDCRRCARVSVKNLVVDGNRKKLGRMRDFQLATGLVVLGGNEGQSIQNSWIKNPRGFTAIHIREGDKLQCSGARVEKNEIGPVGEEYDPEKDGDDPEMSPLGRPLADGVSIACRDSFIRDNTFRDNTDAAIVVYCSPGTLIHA", "ASSIGNED CATEGORY": "criterion met"}
